- Tested on: Bacillus subtilis
- Experimental Protocol: cleaved RNA product abundance (RNA/gDNA barcode ratio) relative to median wild-type variant (ratio to wild type); higher = more accumulation of the downstream cleavage product
- Cond: experiment (reporter, strain, medium): exp 2b: truncated aprE reporter, strain BJT200; cleavage site: cggR-gapA (positions -7 to +36 mutated)
Test Readout: cleaved RNA product abundance

ACAGACGAAGGAGCCGCAAAGAAGTTATTAAGGGATGAATATTCTCTCAATATAAATATCTCTCACTTATTTAAA: 0.265
ACAGACGAAGGAGCCGCAAAGAATTTATTAAGGGATGAATAATCCCTCTATATAAATATCTCTCACTTATTTAAA: 0.363

*Q* # returns recorded cleaved RNA product abundance (system: Bacillus subtilis) for ACAGACGAAGGAGCCGCAAAGAAGTTATTAAGCGATTAATAATCCCTCAATATAAATATCTCTCACTTATTTAAA
*A* 0.0842

---

- System: Bacillus subtilis
- Experimental Protocol: cleaved RNA product abundance (RNA/gDNA barcode ratio) relative to median wild-type variant (ratio to wild type); higher = more accumulation of the downstream cleavage product
- Cond: experiment (reporter, strain, medium): exp 4a: truncated aprE reporter, strain BJT201 with 2% xylose (RNase J1 expressed); cleavage site: cggR-gapA (positions -7 to +36 mutated)
Please use class 1 whenever cleaved RNA product abundance is not below 0.3, and class 0 whenever it is.

*Q* For this sequence, is measured cleaved RNA product abundance 0.3 or higher? ACAGACGAAGGAGCCGCAAAGAAGTTATTAAGGGATGAATAATCCCTCAAAATAAATAACTCTCACTTATTTAAA
*A* class 1

*Q* For this sequence, is measured cleaved RNA product abundance 0.3 or higher? ACAGACGAAGGAGCCGCAAAGAAGTTATTAAGGGATGAATAATCCATCGATATAAATATCTCTCACTTATTTAAA
*A* class 0

*Q* For this sequence, is measured cleaved RNA product abundance 0.3 or higher? ACAGACGAAGGAGCCGCAAAGAAGTTATTTAGGGATGAATAATCCCTCAATATAAAAATCTCTCACTTATTTAAA
*A* class 1

*Q* For this sequence, is measured cleaved RNA product abundance 0.3 or higher? ACAGACGAAGGAGCCGCAAAGAAGTTATTAAGGGATGAATAATGCCTCAATATAAAAATCTCTCACTTATTTAAA
*A* class 0

*Q* For this sequence, is measured cleaved RNA product abundance 0.3 or higher? ACAGACGAAGGAGCCGCAAAGAAGTTATTAAGGGATGAATAATCTGTCAATATAAATATCTCTCACTTATTTAAA
*A* class 0

*Q* For this sequence, is measured cleaved RNA product abundance 0.3 or higher? ACAGACGAAGGAGCCGCAAAGAAGTTATTAAGGGAGGAATAATCCTTCAATATAAATATCTCTCACTTATTTAAA
*A* class 0

*Q* For this sequence, is measured cleaved RNA product abundance 0.3 or higher? ACAGACGAAGGAGCCGCAAAGAAGTTATTAAGGGATGAATAATCCCTCTCTATAAATATCTCTCACTTATTTAAA
*A* class 1

*Q* For this sequence, is measured cleaved RNA product abundance 0.3 or higher? ACAGACGAAGGAGCCGCAAAGAAGTTATTAAGGCATGAATAATCCCTCAATATGAATATCTCTCACTTATTTAAA
*A* class 0

*Q* For this sequence, is measured cleaved RNA product abundance 0.3 or higher? ACAGACGAAGGAGCCGCAAAGAACTTATTAAGGGATGAATAATCCCTCAATATAAATAACTCTCACTTATTTAAA
*A* class 1
